tested system: T1, Biotin sY48 PSGL-1(42-62) peptide (human, sulfotyrosine at Y48; C-terminal Lys-biotin)
T1 construct: also called sY48S
T1 peptide: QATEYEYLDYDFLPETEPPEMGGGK
assay notes: capture ELISA; against 3 x sY peptide
reported metric: EC50/EC50 3x(SO3)Y

Ask | Request the reported EC50/EC50 3x(SO3)Y associated with 10F01 (antibody, IgG4, V domains shown) VH: EVQLVQSGGGLVQPGGSLRLSCAASGFTFSSYAMSWVRQAPGKGLEWVSALRGGDGGTYHADSVKGRFTISGDSSKNTLYLQMNSLRAEDTAVYYCARRMVGAAYAFDIWGQGTMVTVSS VL: LPVLTQPHSVSESPGKTVTISCTRSSGSIADNFVQWYRQRPGSAPTTVIYEGDQRPSGVPGRFSGSIDSSSNSASLTISGLQTDDEADYYCQSFDSYNRRTHVVFGGGTKLTVL
Reply | ~2000 fold
